This section presents molecules with their documented TGI values.
- System: EKVX NSCLC
- assay_summary: NCI tumour cell line growth inhibition, 48 h

COCc1c(-c2cc3cc(C)cc(OC)c3s2)c2c(N)ncnn2c1CN1CCNC(=O)C1	29.8 µM
COc1cc(/C=C/C(=O)/C=C/c2ccc(-n3ccnc3C)cc2)ccc1O	99 µM
CCCCCCCCCCCC[C@@H](O)[C@H]1CCC([C@H](O)CCCCC(=O)CCCCCCCC2=C[C@H](C)OC2=O)O1 (some centres undefined)	> 50 µM

Query :: Param item = COc1ccc2c(c1OC)CO[C@@H]2[C@H]1c2c(cc3c(c2OC)OCO3)CCN1S(=O)(=O)c1cn(C)cn1 ; retrieve measured TGI.
Result :: > 100 µM
